Test: Cytotoxicity against human HepG2(2.2.15) cells
Assay type: cell-based
I'd appreciate it if you could supply CC50 values for the items below.

Below are worked cases with known answers.
# Compound, CC50
data = [
    ("O=C(OCCc1c(-c2ccccc2Cl)c2cc(Cl)ccc2[nH]c1=O)c1ccc([N+](=O)[O-])cc1", "1600 µM"),
    ("O=c1c(CCO)c(-c2ccccc2Cl)c2cc(Cl)ccc2n1Cc1c(F)cccc1F", "> 2300 µM"),
    ("COc1cccc(/C=C/C(=O)OCCCc2c(-c3ccccc3Cl)c3cc(Cl)ccc3[nH]c2=O)c1", "> 1100 µM"),
]

Hi team, please reply with CC50 for each item in this list.
1. COc1ccc(/C=C/C(=O)OCCc2c(-c3ccccc3Cl)c3cc(Cl)ccc3[nH]c2=O)cc1
2. O=C(/C=C/c1ccc(C(F)(F)F)cc1)OCCc1c(-c2ccccc2Cl)c2cc(Cl)ccc2[nH]c1=O
3. CC(=O)N1CCC(C(=O)OCCc2c(-c3ccccc3Cl)c3cc(Cl)ccc3[nH]c2=O)CC1

["> 1200 µM", "> 1400 µM", "82 µM"]

Below are 2 compounds. Give each one its CC50.
1. O=C(/C=C/c1ccccc1)OCCc1c(-c2ccccc2Cl)c2cc(Cl)ccc2[nH]c1=O
2. CC12CCC(C(=O)OCCc3c(-c4ccccc4Cl)c4cc(Cl)ccc4[nH]c3=O)(OC1=O)C2(C)C (stereo not drawn)

230 µM
> 1800 µM
